These measurements were taken from paper PMC10397247.

Entries annotated with measured interaction score
# Target System: T1, 4H619-bH
# T1 chain: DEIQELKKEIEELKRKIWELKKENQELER
# Test Method Notes: two-hybrid library CCNG1;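 also: natural log of median RNA to DNA barcode read ratio; higher means stronger binding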

Binder: DKNQELEKKIEELKRENWELEKKIQELKR [4H3414-bH]
interaction score: 0.721
//
Binder: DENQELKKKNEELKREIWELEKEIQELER [4H1985-bH]
interaction score: -1.32
//
Binder: DEIQELKKEIEELERKNWELKKEIQELKR [4H570-bH]
interaction score: -0.75
